System: MCF7
test-summary: Anticancer activity against human MCF7 cells assessed as inhibition of cell growth by MTT assay
Type: functional, cell-based
Rule: IC50 below 4 nM gives true (1). Equal to or above 4 nM gives false (0).

>>> assigned_class("CC[C@@]1(C)CCC[C@]2(C)[C@H]3C[C@H](OC(C)=O)[C@]4(C)C=C(C(C)=O)[C@H](OC(C)=O)C[C@H]4[C@]3(C)CC[C@@H]12")
"false (0)"
>>> assigned_class("CC(=O)O[C@H]1C[C@@H]2[C@@]3(C)CCCC(C)(C)[C@@H]3CC[C@@]2(C)[C@@H]2CC=C(C(C)=O)[C@@H]3[C@H](O)C[C@@]132")
"true (1)"
>>> assigned_class("CC(=O)O[C@H]1C[C@@H]2[C@@]3(C)CCCC(C)(C)[C@@H]3CC[C@@]2(C)[C@@H]2CC=C(C(C)=O)[C@@H]3[C@@H](O)C[C@@]132")
"true (1)"
>>> assigned_class("CC(=O)O[C@H]1C[C@H]2[C@@](C)(CCC3C(C)(C)CCC[C@@]32C)[C@@H]2C[C@@H](OC(C)=O)C(C(C)=O)=C[C@@]12C (stereo partly specified)")
"false (0)"
>>> assigned_class("CC[C@@]1(C)CCC[C@]2(C)[C@H]3C[C@H](OC(C)=O)[C@]45C[C@@H](O)[C@H]4C(C(C)=O)=CC[C@H]5[C@]3(C)CC[C@@H]12")
"true (1)"

====

System: A549
test-summary: Anticancer activity against human A549 cells assessed as cell growth inhibition
Format: functional, cell-based
measurement-kind: IC50

>>> result_value("CC(=O)CCCC(C)(C)C(=O)CC/C(C)=C/CC[C@@]1(C)CC[C@H]([C@H](C)C(=O)O)OO1 [AIKUPIKOXIDE A]")
"≥ 1 µg/mL"
>>> result_value("C=C1CCC[C@@H]2[C@@](C)(CC[C@@]3(C)CC[C@@H]([C@H](C)C(=O)O)OO3)[C@H](C)CC[C@@]12C")
"24 µM"
>>> result_value("C=C1CCCC(C)(C)C1(O)CCC[C@@]1(C)CC[C@@H]([C@H](C)C(=O)OC)OO1 (some centres undefined)")
"≥ 1 µg/mL"
>>> result_value("CC1=C(CC/C(C)=C/CC[C@@]2(C)CC[C@H]([C@@H](C)C(=O)O)OO2)C(C)(C)CCC1")
"3 µM"

====

Tested on: MDA-MB-231
test-summary: Anticancer activity against human MDA-MB-231 cells assessed as cell growth inhibition incubated for 48 hrs by MTT assay
Format: functional, cell-based
condition-summary: MDA-MB-231, 48 h
measurement-kind: IC50 (µM)

>>> result_value("O[C@]12CCCCCC[C@@H]3CCN4CCC[C@](O)(CCCCCC[C@@H]5CCN(CCC1)[C@H]2O5)[C@@H]4O3")
15.2

====

test-summary: Inhibition of actin (unknown origin) polymerization at 100 nM incubated for 20 mins in presence of ATP by ELISA analysis relative to control
condition-summary: Homo sapiens
Reported inhibition is given for each of the following molecules.
measurement-kind: inhibition (%)

>>> result_value("C/C1=C/C(=O)O[C@@H]2C[C@@H](CC[C@H](C)/C=C\\C=C\\CC1)O[C@@](O)([C@@H]1CSC(=O)N1Cc1ccccc1)C2")
24
>>> result_value("CO[C@]1([C@@H]2CSC(=O)N2C)C[C@H]2C[C@@H](CC[C@H](C)/C=C\\C=C\\CC/C(C)=C\\C(=O)O2)O1")
11
>>> result_value("CCN1C(=O)SC[C@H]1[C@@]1(OC)C[C@H]2C[C@@H](CC[C@H](C)/C=C\\C=C\\CC/C(C)=C\\C(=O)O2)O1")
0
>>> result_value("C/C1=C/C(=O)O[C@@H]2C[C@@H](CC[C@H](C)/C=C\\C=C\\CC1)O[C@@](O)([C@@H]1CSC(=O)N1)C2")
30
>>> result_value("CO[C@]1([C@@H]2CSC(=O)N2C2CCCC2)C[C@H]2C[C@@H](CC[C@H](C)/C=C\\C=C\\CC/C(C)=C\\C(=O)O2)O1")
20
>>> result_value("CO[C@]1([C@@H]2CSC(=O)N2)C[C@H]2C[C@@H](CC[C@H](C)/C=C\\C=C\\CC/C(C)=C\\C(=O)O2)O1")
6
>>> result_value("C/C1=C/C(=O)O[C@@H]2C[C@@H](CC[C@H](C)/C=C\\C=C\\CC1)O[C@@](OCCc1ccccc1)([C@@H]1CSC(=O)N1)C2")
31
>>> result_value("CCN1C(=O)SC[C@H]1[C@@]1(O)C[C@H]2C[C@@H](CC[C@H](C)/C=C\\C=C\\CC/C(C)=C\\C(=O)O2)O1")
31
